Measured activity change, negative = inhibition by item
test-details: Primary qHTS for delayed death inhibitors of the malarial parasite plastid, 48 hour incubation; for activity change, negative = inhibition: % is set by controls: 0 for no effect and ±100 for the full control effect
settings: P. falciparum luciferase growth in erythrocytes; series mostly up to 28.7 µM
From the text: The goal of this screen is to discover new antimalarial compounds that act by inhibiting the development of the apicoplast in the malarial parasite Plasmodium falciparum. […] We have developed a cell-based assay that measures parasite growth based on the expression of an integrated copy of a firefly luciferase reporter. […] Growth inhibition is detected by a decrease in luciferase activity. […]
Out of some 310,000 compounds screened, about 18,000 (5.8%) were called active. Not shown: some 22% with an inconclusive outcome. Shown is part of a subset that was picked to be rich in actives.

{"columns": ["compound-smiles", "observation-type", "observed-result"],
 "data": [
  ["O/N=C(\\C[n+]1ccccc1)c1ccc(Br)cc1", "activity change, negative = inhibition", "-29.6% [at 0.00184 µM] (inactive)"],
  ["COc1ccc(Br)cc1/C=N/NC(=O)c1cccc(S(=O)(=O)N2CCOCC2)c1", "activity change, negative = inhibition", "11.9% [at 5.75 µM] (inactive)"],
  ["Cc1cc(S(=O)(=O)c2cc3ccc(O)c(C)c3oc2=O)ccc1F", "activity change, negative = inhibition", "8.19% [at 0.00184 µM] (inactive)"],
  ["COc1ccccc1N1CCN(S(=O)(=O)c2ccc(Cl)cc2)CC1", "activity change, negative = inhibition", "1.21% [at 0.00184 µM] (inactive)"],
  ["COC(=O)c1sc(N2CCN(Cc3ccccc3)CC2)nc1N", "activity change, negative = inhibition", "-6.08% [at 0.00184 µM] (inactive)"]
]}

activity change, negative = inhibition for COc1ccc2c3c(c(=O)oc2c1)C1O[C@](CCCCN2C(=O)c4ccccc4C2=O)(Cc2c1ccc1ccccc21)O3 ?
44.1% [at 5.75 µM] (inactive)

activity change, negative = inhibition for Cc1cc(C)n(-c2nc(C(F)(F)F)nc3ccccc23)n1 ?
31.4% [at 5.75 µM] (inactive)

----------
test-details: Primary qHTS for delayed death inhibitors of the malarial parasite plastid, 48 hour incubation
settings: P. falciparum luciferase growth in erythrocytes; series mostly up to 28.7 µM
The campaign covered roughly 310,000 compounds. About 18,000 (5.8%) were called active. Inconclusive results (about 22%) are left out. The call rests on the fitted dose curve; in most records, active means well fitted inhibition curve with a large enough effect; inconclusive means small, poorly fitted or top-dose-only effect, or another doubt; inactive means no such curve, though single readings can be large or run the other way. The sample holds actives, similar compounds and a random draw of the others, so the mix is not that of the screen.
Could you please pick one outcome from this set? 1.0 for active, 0.0 for inactive

Completed entries (count: 5):
{"columns": ["compound", "class-name"],
 "data": [
  ["CCOC(=O)c1c(CN(C)C)n(-c2ccccc2)c2cc(Br)c(O)cc12", 1.0],
  ["O=C(CN1CCCCCC1)Nc1ccc(Cl)cc1F", 0.0],
  ["CCN1CCN(c2nc(Nc3cccc(F)c3)nc(N)c2[N+](=O)[O-])CC1", 1.0],
  ["CC1CC1C(=O)OCC(=O)Nc1cccc(F)c1 (centres undefined)", 0.0],
  ["O=C(CN(C(=O)c1nsc(Cl)c1Cl)c1cccc(F)c1)NC1CCCC1", 0.0]
]}

What classification did CCOC(=O)c1ccccc1C(=O)N1CCOCCOCCOCC1 end up with in this test?
0.0

----------
test-details: Primary qHTS for delayed death inhibitors of the malarial parasite plastid, 48 hour incubation
settings: P. falciparum luciferase growth in erythrocytes; series mostly up to 28.7 µM
Screen size: about 310,000 compounds; about 18,000 (5.8%) were called active. Not shown: some 22% with an inconclusive outcome. The call rests on the fitted dose curve; in most records, active means well fitted inhibition curve with a large enough effect; inconclusive means small, poorly fitted or top-dose-only effect, or another doubt; inactive means no such curve, though single readings can be large or run the other way. What follows is part of a selection rich in actives, with near analogues and random picks from the rest.
Could you please pick one outcome from this set? active, inactive

Completed entries (count: 6):
{"columns": ["compound", "class-name"],
 "data": [
  ["COC(=O)[C@]1(C)CCC[C@@]2(C)C3CC[C@]4(OC(C)=O)C[C@@]3(CCC21)CC4=NO (stereo partly specified)", "inactive"],
  ["OC(Cn1c2ccccc2c2ccccc21)C[n+]1ccccc1 (stereo unspecified)", "active"],
  ["CCCNC(=O)c1ccc(Cl)c(Cl)c1", "inactive"],
  ["CCCCNC(=O)Cn1nc(C)c(S(=O)(=O)N2CCOCC2)c1C", "inactive"],
  ["Cc1nnc(N/N=C/C2CC=CCC2)[nH]c1=O (stereo unspecified)", "inactive"],
  ["CCCCn1c(SCC(=O)N2CCC(C(=O)OCC)CC2)nc2cc(S(N)(=O)=O)ccc21", "active"]
]}

What classification did CCCn1c(=N)n(CC(=O)c2ccc(Cl)c(Cl)c2)c2ccccc21 end up with in this test?
active

What classification did COc1cc(/C=N/NC(=O)Cc2ccccc2)cc(OC)c1OC end up with in this test?
inactive

What classification did NS(=O)(=O)c1ccc(CCNC(=O)CCCn2c(SCC(=O)N3CCCC3)nc3ccsc3c2=O)cc1 end up with in this test?
inactive

What classification did Cc1csc(NC(=O)C2CCN(S(=O)(=O)c3ccccc3)CC2)n1 end up with in this test?
inactive

What classification did Cc1ccccc1Nc1nnc(C)c(=O)[nH]1 end up with in this test?
inactive

----------
test-details: Primary qHTS for delayed death inhibitors of the malarial parasite plastid, 48 hour incubation
settings: P. falciparum luciferase growth in erythrocytes; series mostly up to 28.7 µM
The campaign covered roughly 310,000 compounds. About 18,000 (5.8%) were called active. Roughly 22% stayed inconclusive and do not appear here. Calls come from the whole dose curve; as a rule, active = well fitted inhibition curve with a large enough effect; inconclusive = small, poorly fitted or top-dose-only effect, or another doubt; inactive = no such curve, though single readings can be large or run the other way. This is one part of a sample in which actives are shown more often than they occur.
Could you please pick one outcome from this set? active, inactive

Completed entries (count: 8):
{"columns": ["compound", "class-name"],
 "data": [
  ["CC(C)C(=O)Nc1c2c(nn1-c1ccccc1)CSC2", "inactive"],
  ["Cc1ccc2nc(-c3ccc(NC(=O)c4cccnc4)cc3)oc2c1", "active"],
  ["CC1CC(C)CN(S(=O)(=O)c2cccc3nonc23)C1 (stereo unspecified)", "inactive"],
  ["Cc1cc2nc(-c3ccc(NC(=O)c4cccnc4)cc3)oc2cc1C", "inactive"],
  ["CCOC(=O)c1cc(NC(=O)c2cccnc2)cc(C(=O)OCC)c1", "active"],
  ["CC(CNc1ccc([N+](=O)[O-])c2cccnc12)Nc1c([N+](=O)[O-])cc(C(F)(F)F)cc1[N+](=O)[O-] (stereo unspecified)", "active"],
  ["CCN(CC)c1ccc([N+](=O)[O-])c2cccnc12", "inactive"],
  ["N=c1oc2ccccc2cc1C(=O)NCc1ccccc1", "inactive"]
]}

What classification did O=[N+]([O-])c1cc([N+](=O)[O-])c2cccnc2c1O end up with in this test?
inactive

What classification did CCOC(=O)c1ccc(-c2ccc(C(=O)Nc3cccnc3)o2)cc1 end up with in this test?
active

What classification did CCOC(=O)c1ccc(NC(=O)c2cccnc2)cc1 end up with in this test?
inactive

----------
test-details: Primary qHTS for delayed death inhibitors of the malarial parasite plastid, 48 hour incubation
settings: P. falciparum luciferase growth in erythrocytes; series mostly up to 28.7 µM
The campaign covered roughly 310,000 compounds. About 18,000 (5.8%) were called active. About 22% were inconclusive and are not listed. Calls follow the shape of the dose curve; as a rule, active = well fitted inhibition curve with a large enough effect; inconclusive = small, poorly fitted or top-dose-only effect, or another doubt; inactive = no such curve, though single readings can be large or run the other way. The full list was thinned out, with actives kept by preference.
Could you please pick one outcome from this set? 1 = active, -1 = inactive

{"columns": ["molecule", "class-name"],
 "data": [
  ["CC1CCCN(S(=O)(=O)c2ccc(-c3ccc(=O)[nH]n3)o2)C1 (configuration not stated)", -1]
]}

Next up:
What classification did CCOc1ccc(C(=O)Nc2cc(Cl)ccc2-n2cncn2)cc1OC end up with in this test?
-1

----------
test-details: Primary qHTS for delayed death inhibitors of the malarial parasite plastid, 48 hour incubation
settings: P. falciparum luciferase growth in erythrocytes; series mostly up to 28.7 µM
About 18,000 (5.8%) of roughly 310,000 compounds were called active. Roughly 22% stayed inconclusive and do not appear here. The call rests on the fitted dose curve; in most records, active means well fitted inhibition curve with a large enough effect; inconclusive means small, poorly fitted or top-dose-only effect, or another doubt; inactive means no such curve, though single readings can be large or run the other way. Many of the other results were omitted from the sample, so actives are more common in it than they were.
Could you please pick one outcome from this set? Yes for active, No for inactive

{"columns": ["molecule", "class-name"],
 "data": [
  ["Cc1cccc(-c2nnc(SCC(=O)O)n2Cc2ccccc2)c1", "No"]
]}

What classification did CCc1ccc(/C=N/NC(=O)c2nnn(-c3nonc3N)c2CN2CCc3ccccc32)cc1 end up with in this test?
No

What classification did Cc1cccc(N(C(=O)Cc2cccs2)C(C(=O)NCc2ccco2)c2ccncc2)c1 (centres undefined) end up with in this test?
No

What classification did Cc1ccc(F)cc1NC(=O)Cc1nn(C)c(=O)c2ccccc12 end up with in this test?
No

What classification did CC1(C)c2[nH]c3ccccc3c2C[C@H]2C(=O)N(N)CC(=O)N21 end up with in this test?
No

What classification did CCn1c(SCC(=O)NNC(=O)c2ccc(OC)cc2)nnc1C(C)C end up with in this test?
No

What classification did COc1cccc(NC(=O)N2CCC(NC(=O)C(Cc3cccc(C)c3)NC(C)=O)CC2)c1 (centres undefined) end up with in this test?
No
